- test.description: Plasma incubations (human plasma stability)
- measurement.context: 37° C., 25 μM
value.kind: Human Plasma Stability % rem. @ 1 H (%)
Hi! Could you send only the number? It should be in %, unit omitted.

>>> observed_measurement("CC(C)C[C@H](NC(=O)c1ccc(N2CCN(C)CC2)cc1)C(=O)N1CC[C@H]2OCC(=O)[C@H]21 [Example 1, reference compound]")
95

Prompt: For the molecule shown here, "CN1CCN(c2ccc(C(=O)N[C@H](C(=O)N3CC[C@H]4OCC(=O)[C@H]43)C3CCCC3)cc2)CC1" , give the reported Human Plasma Stability % rem. @ 1 H.
Response: 97

Prompt: Would you mind telling me what Human Plasma Stability % rem. @ 1 H value was observed for CC(C)C[C@H](NC(=O)c1ccc(C(C)(C)C)cc1)C(=O)N1CC[C@H]2OCC(=O)[C@H]21 [reference compound] ?
Response: 75

Prompt: What value of Human Plasma Stability % rem. @ 1 H has been reported for the following molecule? "CN1CCN(c2ccc(C(=O)N[C@H](C(=O)N3CC[C@H]4OCC(=O)[C@H]43)C3CCCCC3)cc2)CC1"
Response: 99
